Listed here: items and their measured IC50.
Target: KRASG12D (Homo sapiens, UniProt P01116, G12D)
Sequence (P01116 1-188 isoform P01116-2 G12D): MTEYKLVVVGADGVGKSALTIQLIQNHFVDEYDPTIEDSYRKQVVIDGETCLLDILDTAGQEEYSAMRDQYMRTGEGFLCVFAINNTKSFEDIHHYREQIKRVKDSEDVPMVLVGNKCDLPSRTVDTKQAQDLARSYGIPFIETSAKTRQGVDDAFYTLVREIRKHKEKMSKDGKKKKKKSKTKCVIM
Assay: Bio-Biochem-PPI-HTRF Ras-SOS1 interaction assay (KRAS G12D)
Conditions: 5 nM
Protocol: The assay buffer can contain −5 mM HEPES pH 7.4, ˜150 mM NaCl, ˜ 1 mM DTT, 0.05% BSA and 0.0025% (v/v) Igepal. […] A suitable amount of the protein construct will depend on the range of activity or range of IC50 values being detected or under investigation. […] Upon incubation for about 10 minutes or longer, the fluorescence is measured with a M1000Pro plate reader (Tecan) using HTRF detection (excitation 337 nm, emission 1:620 nm, emission 2: 665 nm). […]

# Compound, IC50
data = [
    ("N#Cc1c(N)sc2c(F)ccc(-c3c(Cl)cc4c(N5CCCCC6(CN(C(=O)C(F)F)C6)C5)nc(OC[C@@]56CCCN5C[C@H](F)C6)nc4c3F)c12 [compound 317]", "< 5 µM"),
    ("N#Cc1c(N)sc2c(F)ccc(-c3c(Cl)cc4c(N5CCCCC6(CN(C(=O)CCC(F)F)C6)C5)nc(OC[C@@]56CCCN5C[C@H](F)C6)nc4c3F)c12 [compound 337]", "< 5 µM"),
    ("N#Cc1c(N)sc2c(F)ccc(-c3c(Cl)cc4c(N5CCCCC6(CN(C(=O)[C@@H]7CCCN7)C6)C5)nc(OC[C@@]56CCCN5C[C@H](F)C6)nc4c3F)c12 [compound 296]", "< 5 µM"),
]

Which IC50 value is on record for Nc1nc2c(-c3c(Cl)cc4c(N5CCC6(CC5)CN(C(=O)C(F)(F)F)C6)nc(OC[C@@]56CCCN5C[C@H](F)C6)nc4c3F)ccc(F)c2s1 [compound 168] ?
≥ 5 µM

Also, COCC(=O)N1CC2(CCCN(c3nc(O[C@@H](C)[C@@H]4CCCN4C)nc4c(F)c(-c5ccc(F)c6sc(N)c(C#N)c56)c(Cl)cc34)C2)C1 [compound 138] please.
< 5 µM
